# Tested on: peripheral blood mononuclear cells (PBMC), T cells
# assay_explanation: ELISpot assay, gamma-interferon release (SFC) after stimulation with a-synuclein epitope pools
# Format: cell-based, human
# condition_info: Patients Summary; PD patients; single peptide
For each record, write down the corresponding IFNg Total SFC.
The reply should contain only the number, in SFC.

The reported peripheral blood mononuclear cells (PBMC), T cells IFNg Total SFC of 3521.0034 (GVLYVGSKTK; listed as Homo sapiens) is 2260

The reported peripheral blood mononuclear cells (PBMC), T cells IFNg Total SFC of 3521.002 (AGKTKEGVL; listed as Homo sapiens) is 98

The reported peripheral blood mononuclear cells (PBMC), T cells IFNg Total SFC of 3521.0046 (FMKGLSKAKE; listed as Homo sapiens) is 0

The reported peripheral blood mononuclear cells (PBMC), T cells IFNg Total SFC of 3521.0084 (YVGSKTKEGVVHGVA; listed as Homo sapiens) is 0

The reported peripheral blood mononuclear cells (PBMC), T cells IFNg Total SFC of 3521.0042 (AGKTKEGVLY; listed as Homo sapiens) is 31

The reported peripheral blood mononuclear cells (PBMC), T cells IFNg Total SFC of 3521.0066 (KAKEGVVAA; listed as Homo sapiens) is 0

The reported peripheral blood mononuclear cells (PBMC), T cells IFNg Total SFC of 3521.0052 (KTKQGVAEAA; listed as Homo sapiens) is 0

The reported peripheral blood mononuclear cells (PBMC), T cells IFNg Total SFC of 3521.0062 (KTKKGVVHG; listed as Homo sapiens) is 113

The reported peripheral blood mononuclear cells (PBMC), T cells IFNg Total SFC of 3521.006 (VATVAEKTKE; listed as Homo sapiens) is 0

The reported peripheral blood mononuclear cells (PBMC), T cells IFNg Total SFC of 3521.0016 (DVFMKGLSK; listed as Homo sapiens) is 0

The reported peripheral blood mononuclear cells (PBMC), T cells IFNg Total SFC of 3521.0067 (KTKEGVVHG; listed as Homo sapiens) is 0

The reported peripheral blood mononuclear cells (PBMC), T cells IFNg Total SFC of 3521.0017 (FMKGLSKAK; listed as Homo sapiens) is 0

The reported peripheral blood mononuclear cells (PBMC), T cells IFNg Total SFC of 3521.0003 (SIAAATGFV; listed as Homo sapiens) is 0

The reported peripheral blood mononuclear cells (PBMC), T cells IFNg Total SFC of 3521.0006 (VLYVGSKTK; listed as Homo sapiens) is 1519
